assay overview: chemical genetic growth profiling, strain panel (AID 1159580);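 note: tested at 20 µM; growth read once vehicle control cultures reached saturation at 30 °C; 1 = growth at the plate median or of vehicle wells; lower values mean less growth of the strain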
details: S. cerevisiae deletion strains, growth OD, locus YOR001W, strain rrp6
In all, about 5,500 compounds went through this assay and about 2,000 (36%) were called active. Another 18% or so got no clear call; they are omitted. Cut-off read from the data, not from the text of the source: active = normalized growth mostly below about 0.91 (no sharp cut-off); inconclusive = no clear call, values can overlap the other calls; inactive = mostly above about 0.92. Some of the results follow.
Thanks in advance; please answer with one of these: active, inactive

Known results for compounds:
compound: C[C@]12CCC3c4ccc(O)cc4CCC3C1CC[C@@H]2OC(=O)CCC1CCCC1 (stereo partly specified)
classification: inactive
--
compound: CC(=O)Oc1ccc2c(c1)CCC1C2CCC2(C)C1CC(OC(C)=O)C2OC(C)=O (stereo unspecified)
classification: inactive
--
compound: O=C1OC(=O)C2C3CCC(O3)C12 (stereo unspecified)
classification: inactive

Request: Hey, what did the test say about CCCC(=O)Nc1ncnc2c1ncn2C1O[C@@H]2COP(=O)(O)O[C@H]2[C@H]1OC(=O)CCC (stereo partly specified) ?
Response: inactive

Request: # outcome recorded in this test, key = COC(=O)C[C@H]1C(C)(C)[C@@H](OC(C)=O)[C@@H]2CC3C4CC(=O)O[C@@H](c5ccoc5)[C@]4(C)CCC3[C@@]1(C)C2=O (stereo partly specified)
Response: inactive

Request: Dear colleague, could you share the recorded outcome for OC[C@@H](O)C(O[C@@H]1O[C@H](CO)[C@H](O)[C@H](O)[C@H]1O)[C@H](O)[C@@H](O)CO (stereo partly specified) when you have a moment?
Response: inactive

Request: Which outcome did this test record for the compound CCS(=O)(=O)CCn1c([N+](=O)[O-])cnc1C ?
Response: inactive

----------
So I've got a bunch of molecules here, and I need their normalized growth values.
assay overview: chemical genetic growth profiling, strain panel (AID 1159580);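 note: tested at 20 µM; growth read once vehicle control cultures reached saturation at 30 °C; 1 = growth at the plate median or of vehicle wells; lower values mean less growth of the strain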
details: S. cerevisiae deletion strains, growth OD, locus YAL021C, strain ccr4, stronger effect = lower value
Screen size: about 5,500 compounds; about 2,000 (36%) were called active. About 18% were inconclusive and are not listed. The list shows a part of the results.
Numbers only.

Worked cases, normalized growth given:
molecule: CC(C)CCCC(C)[C@H]1CCC2C3CC[C@H]4CC(=O)CC[C@]4(C)C3CC[C@@]21C (some centres not stated)
normalized growth: 0.957
--
molecule: O=c1[nH]c2ccccc2n1CCCN1CCC(n2c(=O)[nH]c3cc(Cl)ccc32)CC1
normalized growth: 0.982

Return reported normalized growth values for all items listed beneath this line.
1. C[C@]12CCC3C(CC[C@H]4CC(=O)CC[C@]34C)C1CCC2=O (some centres not stated)
2. Cn1nnnc1SCC1=C(C(=O)O)N2C(=O)C(NC(=O)C(OC=O)c3ccccc3)C2SC1 (configuration not stated)
3. Cc1nccc2c1[nH]c1ccccc12
4. CC(C)=CCOc1c2occc2cc2ccc(=O)oc12

Response:
1: 0.737; 2: 1.02; 3: 0.956; 4: 0.963

Your task in this section: give normalized growth for each listed record.
1. CC1=C(C(=O)O)N2C(=O)[C@@H](NC(=O)[C@H](N)C3=CCC=CC3)C2SC1 (some centres not stated)
2. C=C1CC2C(CCC3(C)C(=O)CCC23)C2(C)C=CC(=O)C=C12 (configuration not stated)
3. Fc1ccc(C(c2ccc(F)cc2)N2CCN(C/C=C/c3ccccc3)CC2)cc1

Response:
1: 1.01; 2: 0.958; 3: 0.625

Would you mind listing normalized growth for each of the following molecules?
1. Cc1ncc([N+](=O)[O-])n1CCO
2. CCCCCN=C(N)N/N=C\c1c[nH]c2ccc(OC)cc12
3. CN1CCN(C(c2ccccc2)c2ccccc2)CC1
4. COP(=S)(OC)SCn1nnc2ccccc2c1=O
5. N#Cc1ccc2c(c1)N(CCCN1CCC(O)CC1)c1ccccc1S2
6. CN1CCN(CCCN2c3ccccc3Sc3ccc(Cl)cc32)CC1
7. O=c1[nH]cnc2nc[nH]c12

Response:
1: 0.983; 2: 0.985; 3: 0.973; 4: 1; 5: 1.01; 6: 0.706; 7: 1.04

Hi team, please reply with normalized growth for each item in this list.
1. CN1Cc2c(N)cccc2C(c2ccccc2)C1 (configuration not stated)
2. CC(C(=O)O)c1ccc(N2Cc3ccccc3C2=O)cc1 (configuration not stated)
3. CC(C)(O)CC[C@@H](O)[C@](C)(O)C1CC[C@@]2(O)C3=CC(=O)C4C[C@@H](O)[C@@H](O)C[C@]4(C)C3CC[C@]12C (some centres not stated)
4. CC1(C)C[C@@H]2C(=O)CC[C@H]3O[C@]3(C)CC[C@H]21
5. COc1cc(OC)c2c(c1Cl)OC1(C2=O)C(O)=CC(=O)CC1C (configuration not stated)

Response:
0.991
0.994
0.991
0.98
1.02

Look up normalized growth for the entries below, preserving their order.
1. O=c1ccc2cc(O[C@@H]3O[C@H](CO)[C@@H](O)[C@H](O)[C@H]3O)c(O)cc2o1
2. CC1(C)S[C@@H]2[C@H](NC(=O)COc3ccccc3)C(=O)N2[C@H]1C(=O)O
3. COc1cc2ccc(=O)oc2c(OC)c1OC
4. COc1c2occc2cc2ccc(=O)oc12
5. Cn1c([N+](=O)[O-])cnc1COC(N)=O

Response:
1: 0.991; 2: 1.01; 3: 1; 4: 0.966; 5: 1.01

Each molecule below has a recorded value; state its normalized growth.
1. COc1cc2ccc(=O)oc2c2ccoc12
2. O=c1ccc2ccc(O)c(O)c2o1

Response:
1: 0.941; 2: 1.01

Dear colleague, could you send me normalized growth for each of the items below? Thanks.
1. COc1cc(O)c(C)c(O)c1
2. COc1cc(O)c(C(=O)O)c(O)c1
3. CC(=O)O[C@@H]1CC2C(C)(C)[C@H](O)C[C@H](O)[C@]2(C)C2CC[C@@]3(C)C(=CC(=O)O[C@H]3c3ccoc3)[C@@]21C (some centres not stated)
4. CC(=O)OC1CCC23C(=O)OC45CCC(C6=CC(=O)OC6)C4(C)CCC2C5CCC3(O)C1 (configuration not stated)

Response:
1: 1.03; 2: 0.992; 3: 0.977; 4: 1

Batch: normalized growth for all items listed.
1. CC(C)=CCOc1cc2oc(=O)ccc2cc1O
2. Nc1ncnc2c1ncn2[C@@H]1O[C@H](CO)[C@@H](O)[C@@H]1O
3. O=C1c2ccccc2C(=O)c2c1ccc(O)c2O
4. CC(=O)c1ccc2c(c1)N(CCCN(C)C)c1ccccc1S2
5. CCS(=O)(=O)CCn1c([N+](=O)[O-])cnc1C
6. O=C(/C=C/C(=O)Oc1ccccc1C(=O)O)Oc1ccccc1C(=O)O

Response:
0.977
1
0.213
0.962
0.999
0.961

----------
Assign normalized growth to each entry below.
assay overview: chemical genetic growth profiling, strain panel (AID 1159580);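 note: tested at 20 µM; growth read once vehicle control cultures reached saturation at 30 °C; 1 = growth at the plate median or of vehicle wells; lower values mean less growth of the strain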
details: S. cerevisiae deletion strains, growth OD, locus YDL134C, strain PPH21, stronger effect = lower value
Screen size: about 5,500 compounds; about 2,000 (36%) were called active. Roughly 18% stayed inconclusive and do not appear here. The list shows a part of the results.
One number for each entry.

Sample answers from the record:
chemical string: COc1cccc(CC(=O)NN)c1
val: 0.995
--
chemical string: COc1ccc(/C=C(\C#N)c2nc3ccccc3[nH]2)cc1OC
val: 0.942
--
chemical string: COc1ccc(/C(C#N)=C/c2ccc(OC)c(OC)c2)cc1
val: 0.949
--
chemical string: O=C(O)C12CC3CC(CC(Br)(C3)C1)C2
val: 1.02
--
chemical string: COc1ccc(/C=N\NC(=O)CC#N)cc1OC
val: 0.999
--
chemical string: NCCS
val: 1.02

Now consider the entry below.
Request: Return reported normalized growth. Input molecule: CCCCC/C=C\C/C=C\C/C=C\C/C=C\CCCC(=O)O
Response: 0.984

----------
assay overview: chemical genetic growth profiling, strain panel (AID 1159580);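 note: tested at 20 µM; growth read once vehicle control cultures reached saturation at 30 °C; 1 = growth at the plate median or of vehicle wells; lower values mean less growth of the strain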
details: S. cerevisiae deletion strains, growth OD, locus YML124C, strain tub3, stronger effect = lower value
Among all 5,500 compounds or so, about 2,000 (36%) were called active. Inconclusive results (about 18%) are left out. The list shows a part of the results.
value kind: normalized growth
Give bare numbers.

The cases that follow already have their normalized growth on record.
chemical string: COc1c2occc2cc2ccc(=O)oc12
normalized growth: 0.996
--
chemical string: O=c1cc(-c2ccc(O)cc2)oc2cc(O[C@@H]3O[C@H](CO)[C@@H](O)[C@H](O)[C@H]3O[C@@H]3OC[C@](O)(CO)[C@H]3O)cc(O)c12
normalized growth: 0.991
--
chemical string: Cn1c(=O)[nH]c(=O)c2[nH]cnc21
normalized growth: 0.972
--
chemical string: COc1cc2ccc(=O)oc2c2ccoc12
normalized growth: 1
--
chemical string: C[C@H]1C(=O)O[C@@H]2CCN3CC=C(COC(=O)[C@](C)(O)[C@]1(C)O)[C@H]23
normalized growth: 0.987

Then there is this compound:
Request: Name the recorded normalized growth of the item COc1cc(O)c(C(=O)O)c(O)c1 in your answer.
Response: 0.992
